Test system: Purkinje fiber of the right ventricular free wall (myocardial action potential)
ASSAY PROTOCOL: Influence on myocardial action potential duration time (APD75), isolated right ventricular free wall, microelectrode in Purkinje fiber
Type: cell-based, dog
ASSAY CONDITIONS: Canis lupus familiaris, 20 min, 3.0 μg/ml, 20 minutes' incubation, (B-A)/A×100, read-out: APD75 (%)
Where a name gives a salt, the structure may show the parent alone.
Label not fulfilled if activation at 3 µg/mL falls below 20%; label fulfilled in every other case.

>  <COMPOUND>
CCN(CCCNc1ccc([N+](=O)[O-])cc1)CCNc1cc(=O)n(C)c(=O)n1C [Compound 73, hydrochloride]

>  <TARGET OF ASSAY>
Purkinje fiber of the right ventricular free wall (myocardial action potential)

>  <GROUP>
not fulfilled

$$$$
>  <COMPOUND>
Cn1c(N2CCN(CCCOc3ccc([N+](=O)[O-])cc3C(=O)c3ccccc3)CC2)cc(=O)n(C)c1=O [Compound 80, oxalate]

>  <TARGET OF ASSAY>
Purkinje fiber of the right ventricular free wall (myocardial action potential)

>  <GROUP>
fulfilled

$$$$
>  <COMPOUND>
Cn1c(N2CCN(CC(=O)Nc3ccc([N+](=O)[O-])cc3)CC2)cc(=O)n(C)c1=O

>  <TARGET OF ASSAY>
Purkinje fiber of the right ventricular free wall (myocardial action potential)

>  <GROUP>
not fulfilled

$$$$
>  <COMPOUND>
Cn1c(N2CCN(CCCOc3ccc([N+](=O)[O-])cc3N)CC2)cc(=O)n(C)c1=O [Compound 153, oxalate]

>  <TARGET OF ASSAY>
Purkinje fiber of the right ventricular free wall (myocardial action potential)

>  <GROUP>
fulfilled

$$$$
>  <COMPOUND>
Cn1c(NCCNCCc2ccc([N+](=O)[O-])cc2)cc(=O)n(C)c1=O [Compound 16, oxalate]

>  <TARGET OF ASSAY>
Purkinje fiber of the right ventricular free wall (myocardial action potential)

>  <GROUP>
fulfilled

$$$$
>  <COMPOUND>
COCCN(CCCc1ccc([N+](=O)[O-])cc1)CCNc1cc(=O)n(C)c(=O)n1C [Compound 171, oxalate]

>  <TARGET OF ASSAY>
Purkinje fiber of the right ventricular free wall (myocardial action potential)

>  <GROUP>
fulfilled

$$$$
>  <COMPOUND>
Cn1c(NCCNCc2ccc([N+](=O)[O-])cc2)cc(=O)n(C)c1=O [Compound 15, oxalate]

>  <TARGET OF ASSAY>
Purkinje fiber of the right ventricular free wall (myocardial action potential)

>  <GROUP>
not fulfilled

$$$$
>  <COMPOUND>
Cn1c(N2CCN(CCCOc3ccc([N+](=O)[O-])c(C(F)(F)F)c3)CC2)cc(=O)n(C)c1=O [Compound 150, oxalate]

>  <TARGET OF ASSAY>
Purkinje fiber of the right ventricular free wall (myocardial action potential)

>  <GROUP>
not fulfilled

$$$$
>  <COMPOUND>
Cn1c(N2CCN(CCCCc3ccc([N+](=O)[O-])cc3)CC2)cc(=O)n(C)c1=O [Compound 34, hydrochloride]

>  <TARGET OF ASSAY>
Purkinje fiber of the right ventricular free wall (myocardial action potential)

>  <GROUP>
not fulfilled

$$$$
>  <COMPOUND>
Cn1c(NCCN(CCO)CCCCc2ccc([N+](=O)[O-])cc2)cc(=O)n(C)c1=O

>  <TARGET OF ASSAY>
Purkinje fiber of the right ventricular free wall (myocardial action potential)

>  <GROUP>
fulfilled

$$$$
>  <COMPOUND>
CC(=O)c1cc([N+](=O)[O-])ccc1NCCCN1CCN(c2cc(=O)n(C)c(=O)n2C)CC1 [Compound 120, oxalate]

>  <TARGET OF ASSAY>
Purkinje fiber of the right ventricular free wall (myocardial action potential)

>  <GROUP>
fulfilled

$$$$
>  <COMPOUND>
CCN(CCNCCCCc1ccc([N+](=O)[O-])cc1)c1cc(=O)n(C)c(=O)n1C

>  <TARGET OF ASSAY>
Purkinje fiber of the right ventricular free wall (myocardial action potential)

>  <GROUP>
fulfilled

$$$$
>  <COMPOUND>
Cn1c(N2CCN(CCc3ccccc3[N+](=O)[O-])CC2)cc(=O)n(C)c1=O [Compound 10, oxalate]

>  <TARGET OF ASSAY>
Purkinje fiber of the right ventricular free wall (myocardial action potential)

>  <GROUP>
not fulfilled

$$$$
>  <COMPOUND>
CCN(CCNc1ccc([N+](=O)[O-])cc1)CCNc1cc(=O)n(C)c(=O)n1C [Compound 71, oxalate]

>  <TARGET OF ASSAY>
Purkinje fiber of the right ventricular free wall (myocardial action potential)

>  <GROUP>
not fulfilled

$$$$
>  <COMPOUND>
Cn1c(NCCN(CCO)CCCc2ccc([N+](=O)[O-])cc2)cc(=O)n(C)c1=O

>  <TARGET OF ASSAY>
Purkinje fiber of the right ventricular free wall (myocardial action potential)

>  <GROUP>
fulfilled

$$$$
